meta.source: the supplement of paper PMC12645437

# system name: T1, CRBN, Q96SW2;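 further: pooled lentiviral library of zinc finger degron-EGFP fusions in mCherry-positive Jurkat cells, FACS-sorted after compound exposure, with degron abundance counted by next-generation sequencing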
# T1 chain: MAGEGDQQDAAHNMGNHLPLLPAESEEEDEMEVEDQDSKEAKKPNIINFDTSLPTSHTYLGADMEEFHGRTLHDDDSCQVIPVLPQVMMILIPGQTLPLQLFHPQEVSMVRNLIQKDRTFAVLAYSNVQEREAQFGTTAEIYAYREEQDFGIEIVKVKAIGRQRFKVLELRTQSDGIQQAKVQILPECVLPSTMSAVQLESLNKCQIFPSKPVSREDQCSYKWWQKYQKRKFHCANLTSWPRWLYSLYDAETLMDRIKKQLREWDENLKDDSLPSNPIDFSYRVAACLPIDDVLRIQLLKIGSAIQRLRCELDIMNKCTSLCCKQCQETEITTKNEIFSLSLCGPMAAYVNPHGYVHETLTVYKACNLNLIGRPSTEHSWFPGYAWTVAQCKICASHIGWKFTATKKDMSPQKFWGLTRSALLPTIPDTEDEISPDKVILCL
# assay text: log2 fold change of degron read counts, EGFP-low vs EGFP+ sorted cells (limma voom), compound-induced degradation; higher = more compound-induced degradation of the degron-EGFP fusion; degrons are variants of IKZF1/3 zinc finger 2; compound dose not given here
# particulars: Jurkat; 18 h; compound: compound 22 (5-morpholino-thalidomide)
Whole data set: some 8,300 sequences, median “log2 fold change of degron read counts, EGFP-low vs EGFP+ sorted cells (limma voom), compound-induced degradation” near -1.1, cut for the highest 2% near 3.2. For the sample, the highest values were picked, then their nearest neighbours and some sequences at random.
Short version: log2 fold change of degron read counts at least 0.3 is 1 (yes), less is 0 (no).

# example entries with known answers
LACEICGFACTQKGNLLRHIKL [46L_47A_49E_50I_52G_53F_54A_55C_67L_, Q9UKT9]
1 (yes)
FWCPICGHRFTQKGNLLRHIKL [46F_47W_49P_50I_52G_53H_54R_55F_67L_, Q9UKT9]
1 (yes)
FICNQCGRGFTQKGNLLRHIKL [46F_47I_49N_50Q_52G_53R_54G_55F_67L_, Q9UKT9]
0 (no)

Decide: is the reported value of log2 fold change of degron read counts for LWCEICGFACTQKGNLLRHIKL [46L_47W_49E_50I_52G_53F_54A_55C_67L_, Q9UKT9] equal to or greater than 0.3?
1 (yes)

Can FACPICGALFTQKGNLLRHIKL [46F_47A_49P_50I_52G_53A_54L_55F_67L_, Q9UKT9] be said to have log2 fold change of degron read counts at or above 0.3?
0 (no)

Tell me whether log2 fold change of degron read counts is at least 0.3 here: FKCEICGRAFTQKGNLLRHIKL [46F_47K_49E_50I_52G_53R_54A_55F_67L_, Q9UKT9]
0 (no)

Tell me whether log2 fold change of degron read counts is at least 0.3 here: LYCEICGFACTQKGNLLRHIKL [46L_47Y_49E_50I_52G_53F_54A_55C_67L_, Q9UKT9]
1 (yes)

Would you say LECEICGFACTQKGNLLRHIKL [46L_47E_49E_50I_52G_53F_54A_55C_67L_, Q9UKT9] shows log2 fold change of degron read counts at minimum 0.3?
0 (no)

Dear colleague, could you confirm whether FYCEQCGAEFTQKGNLLRHIKL [46F_47Y_49E_50Q_52G_53A_54E_55F_67L_, Q9UKT9] has log2 fold change of degron read counts at or above 0.3?
0 (no)

Could you tell me if the measured log2 fold change of degron read counts of LQCEICGFACTQKGNLLRHIKL [46L_47Q_49E_50I_52G_53F_54A_55C_67L_, Q9UKT9] reaches 0.3 or more?
1 (yes)

Is log2 fold change of degron read counts for LCCEICGFACTQKGNLLRHIKL [46L_47C_49E_50I_52G_53F_54A_55C_67L_, Q9UKT9] at or above 0.3?
1 (yes)

Item LECPICGFGCTQKGNLLRHIKL [46L_47E_49P_50I_52G_53F_54G_55C_67L_, Q9UKT9] with log2 fold change of degron read counts of 0.3 or above?
0 (no)

Quick check: does FECPICGHKFTQKGNLLRHIKL [46F_47E_49P_50I_52G_53H_54K_55F_67L_, Q9UKT9] have log2 fold change of degron read counts greater than or equal to 0.3?
0 (no)

Check if log2 fold change of degron read counts >= 0.3 (inclusive). Item: LSCEICGFACTQKGNLLRHIKL [46L_47S_49E_50I_52G_53F_54A_55C_67L_, Q9UKT9]
1 (yes)

Does the reported log2 fold change of degron read counts for LYCNQCGFVCTQKGNLLRHIKL [46L_47Y_49N_50Q_52G_53F_54V_55C_67L_, Q9UKT9] fall at or above the 0.3 mark?
0 (no)
